Target: recombinant DYRK1A kinase (Homo sapiens (Human), UniProt Q13627)
Experiment: DYRK1A kinase assay (Ser/Thr 18 peptide Z-lyte, FRET)
Type: biochemical
Details: 30 μM ATP, one hour at room temperature, read-out: EC50 (μM) (IC50 per method)
Source text: Representative compounds were screened using the assay procedure for DYRK1A kinase activity as described below. The DYRK1A kinase assay was run using the Ser/Thr 18 peptide Z-lyte assay kit according to manufacturer's instructions (Life Technologies—a Division of Thermo-Fisher). This is a non-radioactive assay using fluorescence resonance energy transfer (FRET) between coumarin and fluorescein to detect kinase activity which is represented as a ratio of coumarin emission/fluorescein emission. […]
readout: IC50 (µM)
Numbers only, in µM.

{"columns": ["cpd-smiles", "readout", "units-label", "value-reported"],
 "data": [
  ["CN1CCCCN(C)c2nccc3[nH]c(nc23)-c2n[nH]c3ccc(cc23)-c2cncc(c2)C1", "IC50", "µM", 0.002]
]}

Would you mind listing IC50 for each of the following compounds?
1. O=C1CCc2cccc(c2)-c2nccc3[nH]c(nc23)-c2n[nH]c3ccc(cc23)-c2cncc(c2)N1
2. O=C1CCc2cccc(c2)-c2cncc(c2)NC(=O)c2n[nH]c3ccc(cc23)-c2cncc(c2)CN1
3. Cn1ncc2c1CNCc1cccc(c1)-c1cccc3[nH]c(nc13)-c1n[nH]c3ccc-2cc13

A)
1. 0.006
2. 0.009
3. 0.111

---

Test system: SW480 colon carcinoma cells
Assay: Cell viability assay (CellTiter-Glo) in SW480 cells
Type: cell-based
Conditions: Homo sapiens, 96 h; SW480 cell viability, four days, CellTiter-Glo
pEC50: −log10 of the molar value.
I'd be grateful if you could share measured pEC50 for these entries.

Below, each entry is followed by its recorded pEC50 result.
{"columns": ["cpd-smiles", "pEC50"],
 "data": [
  ["CN1CCCn2cc(nn2)-c2cncc3[nH]c(nc23)-c2n[nH]c3ccc(cc23)-c2cncc(c2)C1", "< 5.00"],
  ["O=C1CCc2cccc(c2)-c2ccnc3[nH]c(nc23)-c2n[nH]c3ccc(cc23)-c2cncc(c2)N1", "< 5.00"],
  ["c1cc2cc(c1)-c1cccc3[nH]c(nc13)-c1n[nH]c3ccc(cc13)-c1cncc(n1)NCCO2", 7.27],
  ["O=C1CCc2cccc(c2)-c2cncc(c2)NC(=O)c2n[nH]c3ccc(cc23)-c2cncc(c2)CN1", "< 5.00"]
]}

Q) For `O=C1NC2CCC(CC2)NCc2cncc(c2)-c2ccc3[nH]nc(c3c2)-c2nc3c1cccc3[nH]2` , write its pEC50.
A) < 5.00
